# study-target: Heat shock factor protein 1 (Homo sapiens) (UniProt Q00613)
# Sequence (Q00613 whole entry, looked up): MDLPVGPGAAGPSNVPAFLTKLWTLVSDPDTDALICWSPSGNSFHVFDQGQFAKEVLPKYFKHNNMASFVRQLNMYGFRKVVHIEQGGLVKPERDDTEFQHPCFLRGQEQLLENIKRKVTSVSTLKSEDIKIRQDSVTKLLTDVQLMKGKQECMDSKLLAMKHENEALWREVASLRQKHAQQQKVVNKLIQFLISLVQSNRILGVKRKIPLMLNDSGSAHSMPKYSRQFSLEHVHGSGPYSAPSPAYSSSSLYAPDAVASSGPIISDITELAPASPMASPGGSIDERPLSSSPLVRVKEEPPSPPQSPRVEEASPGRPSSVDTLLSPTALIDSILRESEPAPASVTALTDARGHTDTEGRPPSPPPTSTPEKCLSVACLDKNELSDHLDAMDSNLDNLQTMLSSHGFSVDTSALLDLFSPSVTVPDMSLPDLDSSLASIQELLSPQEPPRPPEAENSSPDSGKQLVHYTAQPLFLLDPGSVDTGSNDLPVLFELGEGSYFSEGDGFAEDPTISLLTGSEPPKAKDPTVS
# measurement-protocol: ATG_HSE_CIS: Attagene CIS-FACTORIAL HepG2 Assay for human Heat Shock Transcription Factor 1 (HSE) (AID 2282953)
# condition-label: HepG2 HSE cis-reporter, Attagene RNA transcription; actives raise or lower the signal
The source made the active and inactive calls. The calls were made as follows: active = hit-call score of the fitted dose curve at least 0.9, where 1 is the maximum; inactive = score below 0.9.
Possible outcomes: active, inactive

- COS(=O)(=O)c1ccc(C)cc1: inactive
- O=C(CCl)CCl: active
- OCc1ccco1: inactive
- COP(=S)(OC)Oc1cc(Cl)c(Cl)cc1Cl: inactive
- C[C@H]1CCCC(=O)CCC/C=C/c2cc(O)cc(O)c2C(=O)O1: active
- CCC1(c2ccc(N)cc2)CCC(=O)NC1=O (centres undefined): inactive
- O=C(NCO)NCO: inactive
- COc1ccc(C=O)cc1: inactive
- CCOP(=S)(OCC)SCCS(=O)(=O)CC: inactive
- ClCc1ccccn1: inactive
- CCCCOCCOC(C)=O: inactive
- CC12CC1(C)C(=O)N(c1cc(Cl)cc(Cl)c1)C2=O (centres undefined): inactive
- CC(C)CCCCCCOC(=O)c1ccccc1C(=O)OCCCCCCC(C)C: inactive
- O=C1CCCN1: inactive
- CN(C)N=O: inactive
- CC(=O)C=C(C)C: inactive
- Cc1ccc(N)cc1Cl: inactive
- CC(=O)c1cc(C(C)(C)C)cc2c1CCC2(C)C: active
- NC(=O)O: inactive
